Biological target: Nuclear receptor subfamily 4 group A member 2 (Homo sapiens)
Assay: ATG_NURR1_TRANS: Attagene TRANS-FACTORIAL HepG2 Assay for human Nuclear Receptor Related Protein 1 (NURR1) (AID 2282985)
Conditions: HepG2 Attagene TRANS reporter, mRNA readout
Results filed as inconclusive are left out. Active and inactive are the calls of the source. The calls were made as follows: active = hit-call score of the fitted dose curve at least 0.9, where 1 is the maximum; inconclusive = response in the unintended direction; inactive = score below 0.9.
// allowed return values: 1.0 (active), 0.0 (inactive)

A selection of reference data follows.
COc1cc(OC)c(OC)cc1C=O ... 0.0
Nc1c(Cl)c(Cl)c(Cl)c(Cl)c1Cl ... 0.0

Incoming: How did this test come out for O=[N+]([O-])c1cc([N+](=O)[O-])c2ccccc2c1 ?
Outgoing: 0.0

Incoming: // param item: COc1ncc(F)c2nc(S(=O)(=O)Nc3c(F)cccc3F)nn12 ; yields the recorded call
Outgoing: 0.0

---

Assay: ATG_Sox_CIS: Attagene CIS-FACTORIAL HepG2 Assay for human SRY-box transcription factor (SOX) (AID 2282960)
Conditions: HepG2 Attagene cis-factorial SOX reporter, mRNA; actives raise or lower the signal
Active and inactive are the calls of the source. Rule for the calls: active = hit-call score of the fitted dose curve at least 0.9, where 1 is the maximum; inactive = score below 0.9.
Allowed answers: Yes = active, No = inactive

ClCC(Cl)Cl ... No
O=S(=O)(O)OOS(=O)(=O)O ... No
O=S(=O)(O)O ... No
C=CC(=O)OCCCCOC(=O)C=C ... No
COC(C)(C)CCC[C@H](C)C/C=C/C(C)=C/C(=O)OC(C)C ... No

Incoming: Hi, do you know how Oc1ccc(Cl)cc1 came out in this test?
Outgoing: No

Incoming: # fetch the recorded call for Cc1ccccc1CCl here
Outgoing: No

Incoming: What call does the record list for CCCCCCCCCCCC#N ?
Outgoing: Yes

Incoming: Record lookup: outcome of this test for ClCCCCCCCl ?
Outgoing: No

Incoming: Please indicate how the test categorized c1cc(OCC2CO2)ccc1Cc1ccc(OCC2CO2)cc1 (centres undefined) .
Outgoing: Yes

Incoming: Which outcome was assigned to CCC[N+](=O)[O-] in this test?
Outgoing: No

Incoming: Status in this test for CCN(CC)C(=S)S ?
Outgoing: No

Incoming: // param item: CC(C)(C)C(=O)CCl ; yields the recorded call
Outgoing: No

Incoming: Test call for this compound, please: CC(C)(C)C(O)C(Oc1ccc(-c2ccccc2)cc1)n1cncn1 (centres undefined)
Outgoing: No

Incoming: Answer briefly: the call reported for Nc1c(Cl)c(Cl)c(Cl)c(Cl)c1Cl in this assay.
Outgoing: No

Incoming: GET /call?item= CCOC(=O)C1OC1(C)c1ccccc1 (centres undefined) returns the recorded outcome of this test.
Outgoing: No

Incoming: // param item: CCCCCCCCCCCCCCCC[N+](C)(C)C ; yields the recorded call
Outgoing: Yes

Incoming: Record lookup: outcome of this test for Nc1ccccc1C(=O)Oc1ccc2ccccc2c1 ?
Outgoing: Yes

Incoming: Hi team, can someone confirm the assay call for CC(C)(O)C#N ?
Outgoing: No

---

Assay: ATG_NRF2_ARE_CIS: Attagene CIS-FACTORIAL HepG2 Assay for human Nuclear Factor Erythroid 2 Related Factor 2 (NFR2) response to Antioxidant Response Elements (ARE) (AID 2282992)
Settings: HepG2 Attagene ARE/NRF2 reporter, transcription factor activity; actives raise or lower the signal
Description: ATG_CIS is a cell-based, multiplexed-readout assay that uses HepG2, a human liver cell line, with measurements taken at 24 hours after chemical dosing in a 24-well plate.ATG_NRF2_ARE_CIS is one of 52 assay component(s) measured or calculated from the ATG_CIS assay. […] This assay endpoint, ATG_NRF2_ARE_CIS, was analyzed with bidirectional fitting relative to DMSO as the negative control and baseline of activity. […]
Activity calls are given as the source filed them. How the source made its calls: active means hit-call score of the fitted dose curve at least 0.9, where 1 is the maximum; inactive means score below 0.9.
Result category, one only: YES (active), NO (inactive)

Incoming: Given CCCCCCCCCCCC#N , state the outcome it received in this test.
Outgoing: YES

Incoming: Called result for Oc1ccc(Cl)cc1
Outgoing: NO

Incoming: Status in this test for Cc1ccc(OP(=O)(Oc2ccc(C)cc2)Oc2ccc(C)cc2)cc1 (tested in a mixture with another compound) ?
Outgoing: NO

Incoming: Per the assay record, what outcome was assigned to [CH3][Sn]([CH3])([Cl])[Cl] ?
Outgoing: YES

Incoming: Called result for C[C@]12CC[C@H]3[C@@H](CC[C@@]45O[C@@H]4C(O)=C(C#N)C[C@]35C)[C@@H]1CC[C@@H]2O
Outgoing: YES

---

Assay: CEETOX_H295R_CORTISOL: CeeTox H295R High-throughput Steroidogenesis Assay for Cortisol (AID 2283438);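 also: cortisol secreted into medium quantified by LC-MS/MS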
Details: actives raise or lower the signal
Active and inactive are the calls of the source. Rule for the calls: active = hit-call score of the fitted dose curve at least 0.9, where 1 is the maximum; inactive = score below 0.9.
Just give me one of these, please: active, inactive

Answered cases to consult:
CC(C)(C)C(O)C(Oc1ccc(-c2ccccc2)cc1)n1cncn1 (configuration not stated) ... inactive
CC(Cc1ccc(C(C)(C)C)cc1)CN1C[C@@H](C)O[C@@H](C)C1 (some centres not stated) ... active
Cc1cc(C)c(C2=C(OC(=O)CC(C)(C)C)C3(CCCC3)OC2=O)c(C)c1 ... active
Oc1cc(Cl)ccc1Cl ... inactive
c1ccc(Nc2ccc3ccccc3c2)cc1 ... inactive
C=CC(=O)OCCO ... inactive

Next item in the queue.
Incoming: Query: recorded result category for CNC(=O)Oc1cc(C)c(SC)c(C)c1 in this test
Outgoing: inactive

---

Target: Caspase-1 (Homo sapiens) (UniProt P29466)
Sequence (P29466 whole entry, looked up): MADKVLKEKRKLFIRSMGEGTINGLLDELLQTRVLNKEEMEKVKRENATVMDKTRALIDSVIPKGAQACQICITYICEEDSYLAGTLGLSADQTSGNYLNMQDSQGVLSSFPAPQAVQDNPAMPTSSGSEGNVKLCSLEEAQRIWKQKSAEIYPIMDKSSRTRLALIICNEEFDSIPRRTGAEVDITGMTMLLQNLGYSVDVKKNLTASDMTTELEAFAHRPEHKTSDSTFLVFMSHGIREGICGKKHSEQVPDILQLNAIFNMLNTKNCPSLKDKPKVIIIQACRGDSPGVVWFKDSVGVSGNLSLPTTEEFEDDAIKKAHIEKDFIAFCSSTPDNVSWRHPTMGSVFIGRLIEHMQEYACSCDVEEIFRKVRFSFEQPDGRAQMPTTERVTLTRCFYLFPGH
Experiment: NVS_ENZ_hCASP1: NovaScreen (NVS) Enzymatic Assay for human Caspase 1 (CASP1) (AID 2283132)
Results filed as inconclusive are left out. Activity calls are given as the source filed them. How the source made its calls: active means hit-call score of the fitted dose curve at least 0.9, where 1 is the maximum; inconclusive means response in the unintended direction; inactive means score below 0.9.
Write down the outcome that applies. Available outcomes: true (1) for active, false (0) for inactive

As a guide, the following entries are already answered.
O=C1c2c(O)cccc2Cc2cccc(O)c21 ... true (1)
O=C(OC[C@H]1O[C@@H](OC(=O)c2cc(O)c(O)c(OC(=O)c3cc(O)c(O)c(O)c3)c2)[C@H](OC(=O)c2cc(O)c(O)c(OC(=O)c3cc(O)c(O)c(O)c3)c2)[C@@H](OC(=O)c2cc(O)c(O)c(OC(=O)c3cc(O)c(O)c(O)c3)c2)[C@@H]1OC(=O)c1cc(O)c(O)c(OC(=O)c2cc(O)c(O)c(O)c2)c1)c1cc(O)c(O)c(OC(=O)c2cc(O)c(O)c(O)c2)c1 ... true (1)

Incoming: Which outcome was entered for the molecule OC[C@H]1O[C@@](CO)(O[C@H]2O[C@H](CO)[C@@H](O)[C@H](O)[C@H]2O)[C@@H](O)[C@@H]1O in this test?
Outgoing: false (0)

Incoming: Name the outcome recorded for Nc1ccc2c(c1)C(=O)c1ccccc1C2=O in the assay.
Outgoing: false (0)

Incoming: Identify the outcome logged in this assay for the molecule shown: COc1cc(S(=O)(=O)O)c(C)cc1N=Nc1c(O)ccc2cc(S(=O)(=O)O)ccc12
Outgoing: true (1)

Incoming: Fill in: this test's call for CCc1cc(SCc2sc(-c3ccc(C(F)(F)F)cc3)nc2CN2CCN(c3ccc(OC)cc3)CC2)ccc1OCC(=O)O is ___
Outgoing: true (1)

Incoming: Name the outcome recorded for S=C(S)NCCNC(=S)S.[Mn+2].[S-]C([S-])=NCCN=C([S-])[S-].[Zn+2] in the assay.
Outgoing: false (0)

---

Molecular target: Cellular tumor antigen p53 (Homo sapiens)
Assay: TOX21_p53_BLA_p4_ratio: Tox21 HCT-116 p53 Agonism Beta-lactamase Assay, Ratio, Phase 4 (AID 2283601)
Inconclusive results are not listed. The source made the active and inactive calls. The calls were made as follows: active = hit-call score of the fitted dose curve at least 0.9, where 1 is the maximum; inconclusive = response in the unintended direction; inactive = score below 0.9.
PROPERTY_LABEL: outcome

The following compounds have reported results that may help.
CC1CCC(=O)O1 (stereo not given) ... inactive
O=[N+]([O-])c1ccc([As](=O)(O)O)cc1 ... inactive
CCC1(C)CC(=O)NC(=O)C1 ... inactive
CC(C)c1ccc(O)cc1 ... inactive
C[C@H]1CNCCc2ccc(Cl)cc21 ... inactive
Nc1cc(Cl)cc(Cl)c1 ... inactive
O=C(Cl)CCl ... inactive
COCCC#N ... inactive

Incoming: Consider the compound shown here: COc1ccc2[nH]cc(CCN(C(C)C)C(C)C)c2c1 What is its recorded outcome?
Outgoing: inactive

Incoming: Please give the measured outcome for this compound: CNCC(O)c1ccc(O)cc1 (stereo not given)
Outgoing: inactive

Incoming: Form field: reported outcome of CN(C)N
Outgoing: inactive

Incoming: Need outcome of Nc1cc(Cl)ccc1Cl , thanks.
Outgoing: inactive

Incoming: Could you share which outcome value was measured for CCCCNP(N)(N)=S ?
Outgoing: inactive

Incoming: # input compound: CC(=O)Nc1cc([As](=O)(O)O)ccc1O ; wanted: its outcome
Outgoing: inactive

Incoming: Would you kindly share the measured outcome for Cc1ccc2cc(C)ccc2c1 ?
Outgoing: inactive

Incoming: Look up outcome for this compound: c1ccc2c(c1)CCNC2
Outgoing: inactive

Incoming: So what's the measured outcome for this one? CC1(C)CC(=O)CC(C)(C)N1[O]
Outgoing: inactive

Incoming: Suppose we examine the compound Cc1ccc2c(c1)C1CN(C)CCC1N2 (stereo not given) ; what outcome value has been reported?
Outgoing: inactive

Incoming: Recorded outcome for CCOP(=S)(OCC)SCCl , please?
Outgoing: inactive

meta.source: PubChem BioAssay (EPA / NIEHS)
